Reference source: patent US11919896B2

Below are log10 of IC50 values recorded for JAK1 (Homo sapiens (Human), UniProt P23458).
Note: values are log10 of IC50 expressed in nM.

JAK1 (Homo sapiens (Human), UniProt P23458) log10 of IC50 of O=C(Nc1nc2cccc(C3CCC4(CC3)CN(C(=O)[C@@H]3CC3(F)F)C4)n2n1)[C@@H]1CC1(F)F [Compound 9-3] is 0.85

Bench note, JAK1 (Homo sapiens (Human), UniProt P23458): O=C(Nc1nc2cccc([C@@H]3CCC4(CCN(C(=O)[C@@H]5CC5(F)F)CC4)C3)n2n1)C1CC1 [Compound 6-8] , log10 of IC50 reads 2.58

# value of log10 of IC50, JAK1 (Homo sapiens (Human), UniProt P23458), item N#CCC(=O)N1CCC2(CCC(c3c(F)ccc4nc(NC(=O)C5CC5)nn34)CC2)CC1 [Compound 10-5] = 2.53

Tested on JAK1 (Homo sapiens (Human), UniProt P23458): O=C(Nc1nc2cccc([C@H]3CCC4(CCN(C(=O)[C@@H]5CC5(F)F)CC4)C3)n2n1)C1CC1 [Compound 6-7] . Observed log10 of IC50: 1.80

Form: item O=C(Nc1nc2cccc(C3CCC4(CC3)CCN(C(=O)[C@@H]3CC3(F)F)C4)n2n1)C1CC1 (stereo partly shown) [Compound 5-7] ; test system JAK1 (Homo sapiens (Human), UniProt P23458); log10 of IC50: 1.49

Reading of log10 of IC50 for CC(C)(C#N)C(=O)N1CC2(CCC(c3cccc4nc(NC(=O)C5CC5)nn34)CC2)C1 [Compound 1-15] with JAK1 (Homo sapiens (Human), UniProt P23458): 1.30

Param item: O=C(Nc1nc2cccc(C3CCC4(CC3)CN(C(=O)[C@@H]3CC3(F)F)C4)n2n1)[C@H]1CC1(F)F [Compound 8-6] ; param system: JAK1 (Homo sapiens (Human), UniProt P23458); output log10 of IC50: 1.15

----------
# testedOn: TYK2 (Homo sapiens (Human))
# Sequence (P29597 whole entry): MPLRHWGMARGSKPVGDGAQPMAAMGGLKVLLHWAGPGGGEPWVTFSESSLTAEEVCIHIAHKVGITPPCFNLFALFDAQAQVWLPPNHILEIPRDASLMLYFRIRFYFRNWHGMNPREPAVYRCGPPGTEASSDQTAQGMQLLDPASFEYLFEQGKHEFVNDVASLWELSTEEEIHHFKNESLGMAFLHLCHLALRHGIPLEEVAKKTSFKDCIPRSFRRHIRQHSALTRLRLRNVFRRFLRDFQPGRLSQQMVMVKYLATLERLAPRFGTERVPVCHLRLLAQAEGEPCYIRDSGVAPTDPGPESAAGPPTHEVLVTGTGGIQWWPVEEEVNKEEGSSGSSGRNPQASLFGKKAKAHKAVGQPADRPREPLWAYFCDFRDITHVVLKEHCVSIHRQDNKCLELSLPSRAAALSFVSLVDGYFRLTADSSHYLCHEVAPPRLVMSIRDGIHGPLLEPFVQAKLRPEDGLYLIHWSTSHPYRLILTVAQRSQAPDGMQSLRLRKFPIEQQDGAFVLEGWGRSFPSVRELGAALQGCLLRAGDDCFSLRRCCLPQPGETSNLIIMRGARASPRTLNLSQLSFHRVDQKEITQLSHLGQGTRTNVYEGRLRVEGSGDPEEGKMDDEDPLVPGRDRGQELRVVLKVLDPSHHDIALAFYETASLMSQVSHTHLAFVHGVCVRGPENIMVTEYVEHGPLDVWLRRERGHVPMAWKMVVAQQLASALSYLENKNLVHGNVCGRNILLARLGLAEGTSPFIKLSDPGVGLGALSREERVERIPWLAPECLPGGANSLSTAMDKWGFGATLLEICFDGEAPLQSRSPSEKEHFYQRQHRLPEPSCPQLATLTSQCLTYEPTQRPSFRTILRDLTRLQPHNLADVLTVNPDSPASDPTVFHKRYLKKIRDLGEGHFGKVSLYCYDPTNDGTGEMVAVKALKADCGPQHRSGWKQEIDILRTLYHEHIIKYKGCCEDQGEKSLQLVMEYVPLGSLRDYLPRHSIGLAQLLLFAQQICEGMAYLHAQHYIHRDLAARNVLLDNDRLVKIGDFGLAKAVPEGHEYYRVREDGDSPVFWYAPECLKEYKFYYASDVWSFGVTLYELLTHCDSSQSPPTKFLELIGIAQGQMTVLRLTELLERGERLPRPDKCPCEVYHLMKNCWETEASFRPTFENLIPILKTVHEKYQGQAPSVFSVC
Under this convention, label 1 denotes IC50 strictly below 400 nM and label 0 denotes IC50 at or above 400 nM.

Input `O=C(Nc1nc2cccc(C3CCC4(CC3)CN(C(=O)[C@@H]3CC3(F)F)C4)n2n1)[C@H]1CC1(F)F` ; condition: IC50 strictly below 400 nM. Does it hold?
label 1

Check if IC50 falls below 400 nM for `N#CCC(=O)N1CCC2(CCC(c3c(F)ccc4nc(NC(=O)C5CC5)nn34)CC2)CC1` .
label 0

Determine if O=C(Nc1nc2cccc(C3CCC4(CC3)CCN(C(=O)[C@@H]3CC3(F)F)C4)n2n1)C1CC1 (some centres unmarked) [Compound 5-7] shows IC50 strictly lower than 400 nM.
label 1

Does this compound meet the criterion IC50 < 400 nM? `N#CCCN1CC2(CCC(c3cccc4nc(NC(=O)C5CC5)nn34)CC2)C1`
label 1

is_below(IC50, 400 nM) for `N#CCC(=O)N1CC2(CCC(F)(c3cccc4nc(NC(=O)C5CC5)nn34)CC2)C1` ?
label 1

Check if IC50 falls below 400 nM for `CC(C)(C#N)C(=O)N1CC2(CCC(c3cccc4nc(NC(=O)C5CC5)nn34)CC2)C1` .
label 1

Determine whether this compound shows IC50 lower than 400 nM (ties excluded): `N#CCN1CC2(CCC(c3cccc4nc(NC(=O)[C@H]5CC5(F)F)nn34)CC2)C1`
label 0

Identify whether the compound `O=C(Nc1nc2cccc(C3CCC4(CC3)CN(C(=O)[C@@H]3CC3(F)F)C4)n2n1)[C@@H]1CC1(F)F` records IC50 below 400 nM.
label 1

Dear reviewer, please state whether O=C(Nc1nc2cccc(C3CCC4(CC3)CCN(C(=O)[C@@H]3CC3(F)F)C4)n2n1)C1CC1 (some centres unmarked) [Compound 5-8] has IC50 strictly beneath 400 nM.
label 0

Strictly below 400 nM in IC50? `N#CCN1CC2(CCC(c3cccc4nc(NC(=O)[C@@H]5CC5(F)F)nn34)CC2)C1`
label 0

----------
Recorded below: IC50, system JAK1 (Homo sapiens (Human)).
Field: numeric (nM). Do not append units.

Sample O=C(Nc1nc2cccc(C3CCC4(CC3)CCN(C(=O)[C@@H]3CC3(F)F)C4)n2n1)C1CC1 (stereo partly drawn) [Compound 5-8] ; IC50 observed: 75

IC50 measured on N#CCN1CC2(CCC(c3cccc4nc(NC(=O)[C@@H]5CC5(F)F)nn34)CC2)C1 [Compound 9-6] = 432

For this compound ( O=C(Nc1nc2cccc([C@H]3CCC4(C3)CN(C(=O)[C@@H]3CC3(F)F)C4)n2n1)C1CC1 [Compound 7-7] ), measured IC50 is 63

Field IC50 (entry N#CCC(=O)N1CC2(CCC(F)(c3cccc4nc(NC(=O)C5CC5)nn34)CC2)C1 [Compound 4-6] ) reads 170

The recorded IC50 for entry O=C(Nc1nc2cccc([C@@H]3CCC4(C3)CN(C(=O)[C@@H]3CC3(F)F)C4)n2n1)C1CC1 [Compound 7-8] equals 176

The compound listed as N#CCN1CC2(CCC(c3cccc4nc(NC(=O)[C@H]5CC5(F)F)nn34)CC2)C1 [Compound 8-9] shows IC50 equal to 52
